Values compiled from patent US9085575B2.

Target Or Test System: ALK (Homo sapiens, UniProt Q9UM73)
Sequence (Q9UM73 19-1620): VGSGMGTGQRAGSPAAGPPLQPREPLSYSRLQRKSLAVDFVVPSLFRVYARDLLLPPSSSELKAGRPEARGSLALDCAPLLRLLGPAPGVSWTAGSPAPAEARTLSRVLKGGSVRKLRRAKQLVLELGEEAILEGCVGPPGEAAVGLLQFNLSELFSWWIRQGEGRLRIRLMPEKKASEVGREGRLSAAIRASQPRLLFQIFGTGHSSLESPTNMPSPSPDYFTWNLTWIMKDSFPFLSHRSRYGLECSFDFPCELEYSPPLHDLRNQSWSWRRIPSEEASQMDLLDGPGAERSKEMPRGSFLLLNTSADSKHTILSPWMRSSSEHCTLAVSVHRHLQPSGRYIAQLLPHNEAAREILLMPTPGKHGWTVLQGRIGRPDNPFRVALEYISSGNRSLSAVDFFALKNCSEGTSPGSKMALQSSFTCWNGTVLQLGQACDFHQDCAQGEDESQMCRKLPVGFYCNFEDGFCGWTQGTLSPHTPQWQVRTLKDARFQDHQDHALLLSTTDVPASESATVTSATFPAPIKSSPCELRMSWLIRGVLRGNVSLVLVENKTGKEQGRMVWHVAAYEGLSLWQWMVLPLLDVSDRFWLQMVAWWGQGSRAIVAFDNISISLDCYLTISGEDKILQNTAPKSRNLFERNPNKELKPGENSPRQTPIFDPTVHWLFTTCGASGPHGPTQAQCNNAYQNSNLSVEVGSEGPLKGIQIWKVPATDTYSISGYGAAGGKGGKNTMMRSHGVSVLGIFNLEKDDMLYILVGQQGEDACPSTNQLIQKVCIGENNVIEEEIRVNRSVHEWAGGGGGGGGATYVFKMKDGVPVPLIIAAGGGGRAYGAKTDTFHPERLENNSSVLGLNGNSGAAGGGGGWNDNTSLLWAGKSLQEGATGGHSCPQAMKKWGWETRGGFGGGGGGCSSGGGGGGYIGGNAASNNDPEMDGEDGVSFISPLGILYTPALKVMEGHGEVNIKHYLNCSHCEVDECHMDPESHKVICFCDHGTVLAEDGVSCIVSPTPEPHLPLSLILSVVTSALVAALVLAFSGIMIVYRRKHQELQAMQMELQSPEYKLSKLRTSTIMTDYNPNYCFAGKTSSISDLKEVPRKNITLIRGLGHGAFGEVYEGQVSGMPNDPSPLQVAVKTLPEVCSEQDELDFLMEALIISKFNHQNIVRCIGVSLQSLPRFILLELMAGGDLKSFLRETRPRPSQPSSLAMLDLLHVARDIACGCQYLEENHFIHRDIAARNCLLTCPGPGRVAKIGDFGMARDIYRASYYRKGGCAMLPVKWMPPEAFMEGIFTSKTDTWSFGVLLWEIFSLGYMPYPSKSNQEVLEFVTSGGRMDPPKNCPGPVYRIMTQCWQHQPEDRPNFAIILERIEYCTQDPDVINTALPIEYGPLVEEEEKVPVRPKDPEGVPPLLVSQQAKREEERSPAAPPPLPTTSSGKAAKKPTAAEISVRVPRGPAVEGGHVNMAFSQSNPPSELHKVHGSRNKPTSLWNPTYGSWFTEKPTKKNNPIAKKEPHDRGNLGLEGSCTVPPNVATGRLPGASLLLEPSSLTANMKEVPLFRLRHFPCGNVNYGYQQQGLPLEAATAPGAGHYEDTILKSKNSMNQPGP
Method Notes: Test for measurement of ALK inhibition (ELISA, GST-PLCγ1 substrate, luminescence)
Assay type: biochemical
Run Conditions: enzymatic IC50 on ALK, 250 μM ATP, class symbols; read-out: IC50 (ALK)
Known IC50 of a selection of compounds

>  <Test Smiles>
Cc1n[nH]c2nc(-c3ccc(O)cc3)c3c(=O)n(CCCN4CC[C@@H](N)C4)c4ccccc4c3c12

>  <IC50>
< 0.1 µM

$$$$

Consider the compound Cc1n[nH]c2nc(-c3cc(O)cc(F)c3)c3c(=O)[nH]c4cc(N5CCNCC5)ccc4c3c12 and give its measured IC50.
< 0.1 µM

Consider the compound Cc1n[nH]c2nc(-c3ccc(O)cc3)c3c(=O)n(CCCN4CCN(C)CC4)c4ccccc4c3c12 and give its measured IC50.
< 0.1 µM

Consider the compound Cc1nn(C(=O)OC(C)(C)C)c2nc(-c3ccc(OC(=O)C(C)(C)C)cc3)c3c(=O)[nH]c4cc(N5CCN(C(=O)OC(C)(C)C)CC5)ccc4c3c12 and give its measured IC50.
0.1 to 1 µM
